Assay: chemical genetic growth profiling, strain panel (AID 1159580);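 note: tested at 20 µM; growth read once vehicle control cultures reached saturation at 30 °C; 1 = growth at the plate median or of vehicle wells; lower values mean less growth of the strain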
Conditions: S. cerevisiae deletion strains, growth OD, locus YOR144C, strain elg1
Hit rate of the full screen: of about 5,500 compounds, about 2,000 (36%) were called active. Roughly 18% stayed inconclusive and do not appear here. Cut-off read from the data, not from the text of the source: active = normalized growth mostly below about 0.91 (no sharp cut-off); inconclusive = no clear call, values can overlap the other calls; inactive = mostly above about 0.92. This is one part of the list.
Respond only with the outcome that fits, drawn from active, inactive

Examples with answers:
- Molecule: "CC12CCC3c4ccc(OC(=O)c5ccccc5)cc4CCC3C1CCC2O (stereo not drawn)"
  Class: "inactive"
- Molecule: "CC(C)[N+](C)(CCC(C(N)=O)(c1ccccc1)c1ccccc1)C(C)C"
  Class: "inactive"
- Molecule: "CC(C)(C)NCC(O)c1cc(O)cc(O)c1 (stereo not drawn)"
  Class: "inactive"
- Molecule: "COC(=O)c1c(C)cc(OC)cc1O"
  Class: "inactive"
- Molecule: "CCC/C=C1\\OC(=O)C2=C1CCC=C2"
  Class: "inactive"

// param item: O=C1C=C2C(=CCOC2O)O1 (stereo not drawn) ; yields the recorded call
inactive

// param item: CCC(c1ccc(O)cc1)C(CC)c1ccc(O)cc1 (stereo not drawn) ; yields the recorded call
inactive

// param item: CCc1cc(C(N)=S)ccn1 ; yields the recorded call
inactive

---

Assay: chemical genetic growth profiling, strain panel (AID 1159580)
Conditions: S. cerevisiae deletion strains, growth OD, locus YCL011C, strain gbp2, active compounds read low
The campaign covered roughly 5,500 compounds. About 2,000 (36%) were called active. Roughly 18% stayed inconclusive and do not appear here. This is one part of the list.
Property Name: normalized growth
One number for each entry.

Reference set (5 entries):
- Compound: "CCC1OC(=O)[C@H](C)C(=O)[C@H](C)[C@@H](OC2O[C@H](C)C[C@H](N(C)C)[C@H]2O)[C@](C)(OC)C2(CCCn3cnc(-c4cccnc4)c3)C[C@@H](C)C(=O)[C@H](C)[C@H]3N(C2)C(=O)O[C@]13C (stereo partly specified)"
  Measured Result: 0.981
- Compound: "CCOCN(C(=O)CCl)c1c(C)cccc1CC"
  Measured Result: 0.998
- Compound: "CC1(C)O[C@H]2CC(=O)OC[C@]23[C@H]2CC[C@@]4(C)[C@H](c5ccoc5)OC(=O)[C@H]5O[C@]54[C@]2(C)C(=O)C[C@@H]13"
  Measured Result: 0.98
- Compound: "CCOC(=O)c1c(C)cc(O)cc1O"
  Measured Result: 0.891
- Compound: "CCC(c1ccc(O)cc1)C(CC)c1ccc(O)cc1 (stereo unspecified)"
  Measured Result: 0.858

Could you tell me normalized growth for each of these compounds? They are listed below.
1. CC1(C)C2CC(=O)[C@]3(C)C(CC[C@@]4(C)[C@H](c5ccoc5)OC(=O)[C@H]5O[C@]543)[C@@]2(C)C(=O)C[C@H]1O (stereo partly specified)
2. NC(=O)CN1CCCC1=O
3. O=c1c(O)c(-c2ccc(O)c(O)c2)oc2c(O)c(O)cc(O)c12
4. C[C@@H]([C@H](O)c1ccccc1)N(C)C
5. NS(=O)(=O)c1cc(C2(O)NC(=O)c3ccccc32)ccc1Cl (stereo unspecified)
6. CCCC(C)(COC(N)=O)COC(=O)NC(C)C (stereo unspecified)
7. CCc1cc(C(N)=S)ccn1

[1.02, 0.999, 1.01, 1.01, 0.99, 0.996, 1.01]

---

Assay: chemical genetic growth profiling, strain panel (AID 1159580);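 note: tested at 20 µM; growth read once vehicle control cultures reached saturation at 30 °C; 1 = growth at the plate median or of vehicle wells; lower values mean less growth of the strain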
Conditions: S. cerevisiae deletion strains, growth OD, locus YOL012C, strain htz1
Among all 5,500 compounds or so, about 2,000 (36%) were called active. Roughly 18% stayed inconclusive and do not appear here. The list shows a part of the results.
Property Name: normalized growth
Answers are plain numbers.

- Compound: "O=c1c(O)c(-c2ccc(O)cc2O)oc2cc(O)cc(O)c12"
  normalized growth: 0.825
- Compound: "CCC1OC(=O)[C@H](C)C(=O)[C@H](C)[C@@H](OC2O[C@H](C)C[C@H](N(C)C)[C@H]2O)[C@](C)(OC)C2(CCCn3cnc(-c4cccnc4)c3)C[C@@H](C)C(=O)[C@H](C)[C@H]3N(C2)C(=O)O[C@]13C (stereo partly drawn)"
  normalized growth: 1.16
- Compound: "CCOCN(C(=O)CCl)c1c(C)cccc1CC"
  normalized growth: 0.911
- Compound: "O=c1cc(-c2ccc(O)cc2)oc2cc(O[C@@H]3O[C@H](CO)[C@@H](O)[C@H](O)[C@H]3O)cc(O)c12"
  normalized growth: 0.98
- Compound: "NC(N)=NC(=O)c1nc(Cl)c(N)nc1N"
  normalized growth: 1.27
- Compound: "COC(=O)C1OC(=O)C2OC23C1(C)CCC1C2(C)C(OC(C)=O)CC(OC(C)=O)C(C)(C)C2CC(=O)C13C (stereo not drawn)"
  normalized growth: 0.841
- Compound: "C[C@]12CCC3c4ccc(O)cc4CCC3C1C[C@@H](O)[C@@H]2O (stereo partly drawn)"
  normalized growth: 1.25
- Compound: "CCc1cccc(CC)c1N(COC)C(=O)CCl"
  normalized growth: 1.33
- Compound: "CC12CCC3c4ccc(OCc5ccccc5)cc4CCC3C1C[C@@H](O)[C@@H]2O (stereo partly drawn)"
  normalized growth: 0.149
- Compound: "O=C(OC1Cc2c(O)cc(O)cc2OC1c1cc(=O)c(O)c2c(O)c(O)cc(C3Oc4cc(O)cc(O)c4CC3O)c2c1)c1cc(O)c(O)c(O)c1 (stereo not drawn)"
  normalized growth: 0.293

Could you tell me normalized growth for each of these compounds? They are listed below.
1. COc1ccc2c(c1)CCC1C2CC[C@@]2(C)C1CC[C@@H]2O (stereo partly drawn)
2. COc1ccc(Cl)cc1C(=O)NCCc1ccc(S(=O)(=O)NC(=O)NC2CCCCC2)cc1
3. COc1ccc2c(c1)CCC1C2CCC2(C)C1C[C@@H](O)C2O (stereo partly drawn)
4. O=C(O[C@@H]1Cc2c(O)cc(O)cc2O[C@@H]1c1cc(O)c(=O)c2c(O)c(O)cc([C@H]3Oc4cc(O)cc(O)c4C[C@H]3OC(=O)c3cc(O)c(O)c(O)c3)c2c1)c1cc(O)c(O)c(O)c1
5. CCC/C=C1\OC(=O)C2=C1CCC=C2
6. CCCCC1C(=O)N(c2ccccc2)N(c2ccc(O)cc2)C1=O (stereo not drawn)

1: 1.54; 2: 1.15; 3: 0.926; 4: 0.378; 5: 1.31; 6: 0.972

Could you tell me normalized growth for each of these compounds? They are listed below.
1. COc1ccc(-c2oc3cc(O[C@H]4O[C@H](CO)[C@@H](O)[C@H](O)[C@H]4O)c(OC)c(O)c3c(=O)c2OC)cc1O
2. COc1ccccc1/C=C\C(=O)O

0.832
1.02

---

Assay: chemical genetic growth profiling, strain panel (AID 1159580);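 note: tested at 20 µM; growth read once vehicle control cultures reached saturation at 30 °C; 1 = growth at the plate median or of vehicle wells; lower values mean less growth of the strain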
Settings: S. cerevisiae deletion strains, growth OD, locus YGL253W, strain hxk2, active compounds read low
Among all 5,500 compounds or so, about 2,000 (36%) were called active. About 18% were inconclusive and are not listed. The list shows a part of the results.
Property Name: normalized growth
Answers are plain numbers.

Reference set (4 entries):
- Molecule: "C[C@@H]([C@H](O)c1ccccc1)N(C)C"
  normalized growth: 1.02
- Molecule: "COc1ccc(-c2cc(=O)c3c(O)cc(O[C@H]4O[C@H](CO[C@@H]5O[C@@H](C)[C@H](O)[C@@H](O)[C@H]5O)[C@@H](O)[C@H](O)[C@H]4O)cc3o2)cc1"
  normalized growth: 0.986
- Molecule: "O=C(O)C1=C[C@@H](O)[C@@H](O)[C@H](O)C1"
  normalized growth: 0.984
- Molecule: "COc1cc(OC)c2c(=O)c(O)c(-c3ccc(OC)c(OC)c3)oc2c1"
  normalized growth: 0.889

Reported normalized growth for CNC(C)C(O)c1ccccc1 (stereo not given) was 1.01

---

Assay: chemical genetic growth profiling, strain panel (AID 1159580);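 note: tested at 20 µM; growth read once vehicle control cultures reached saturation at 30 °C; 1 = growth at the plate median or of vehicle wells; lower values mean less growth of the strain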
Settings: S. cerevisiae deletion strains, growth OD, locus YKL203C, strain TOR2, active compounds read low
About 2,000 (36%) of roughly 5,500 compounds were called active. Another 18% or so got no clear call; they are omitted. Some of the results follow.
# note: exactly 1 is not below, so it is 0.0; use 1.0 for normalized growth strictly under it

Examples with answers:
- Compound: "O=S(=O)(CS(=O)(=O)Oc1ccc(Cl)c(Cl)c1)Oc1ccc(Cl)c(Cl)c1"
  Class: 0.0
- Compound: "Cc1nnc2n1N=C(c1ccc(CC(C)C)cc1)C(C)S2 (stereo unspecified)"
  Class: 0.0
- Compound: "O=C1Nc2ccccc2/C1=C\\c1cccc([N+](=O)[O-])c1"
  Class: 0.0
- Compound: "FC(F)(F)c1cccc(NC(=S)NN=C2CCCCCC2)c1"
  Class: 1.0
- Compound: "O=C1Nc2ccccc2/C1=C\\c1ccc(Cl)cc1"
  Class: 1.0

With those in mind, consider the next compound.
Find out if reported normalized growth for CC(C)(C)NC(=S)N/N=C\c1ccccc1O is less than 1
1.0
